Data origin, for the record: patent US10889591B2

target: PDE1A1 Enzyme (Homo sapiens (Human)); assay: PDE enzymology evaluation, PDE1A1; assay type: biochemical
Sequence (P54750 whole entry, change not shown): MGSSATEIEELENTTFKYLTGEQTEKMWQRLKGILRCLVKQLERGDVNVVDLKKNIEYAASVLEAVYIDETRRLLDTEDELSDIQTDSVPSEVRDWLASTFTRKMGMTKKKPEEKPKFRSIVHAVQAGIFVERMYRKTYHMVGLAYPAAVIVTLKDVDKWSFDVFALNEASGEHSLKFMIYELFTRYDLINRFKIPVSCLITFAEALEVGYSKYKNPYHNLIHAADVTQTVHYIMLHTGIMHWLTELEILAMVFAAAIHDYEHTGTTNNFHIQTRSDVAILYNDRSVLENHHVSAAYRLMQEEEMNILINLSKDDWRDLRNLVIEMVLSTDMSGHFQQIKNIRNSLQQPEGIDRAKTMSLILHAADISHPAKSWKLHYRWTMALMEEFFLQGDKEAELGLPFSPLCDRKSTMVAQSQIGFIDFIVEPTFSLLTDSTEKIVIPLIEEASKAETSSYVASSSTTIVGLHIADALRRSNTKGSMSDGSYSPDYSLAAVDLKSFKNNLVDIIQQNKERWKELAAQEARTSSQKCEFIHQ
endpoint_label: IC50 (nM)

[
  {
    "molecular_string": "N#Cc1c(N2CCC3(CC2)COC3)c2ccncc2[nH]c1=O",
    "bound_operator": "=",
    "reported_measurement": 4920
  },
  {
    "molecular_string": "N#Cc1c(N2CCC3(CC2)CC3)c2ccncc2[nH]c1=O",
    "bound_operator": ">",
    "reported_measurement": 3000
  }
]

====

Item-by-item account of half-life
assay: Rat pharmacokinetic evaluation; assay type: in vivo, SD male rats; conditions: male, Sprague-Dawley, plasma, po; SD rat, intragastric 5 mg/kg; read-out: tz1/2 po (terminal elimination half-life) (converted)
endpoint_label: half-life (h)

[
  {
    "compound": "N#Cc1c(N2CCC3(CC2)CC3)c2cc(C(O)C3CC3)ncc2[nH]c1=O (stereo not drawn)",
    "endpoint_label": "half-life",
    "reported_measurement": 4.49
  },
  {
    "compound": "CC(C)(O)c1cc2c(N3CCC4(CC3)CC4)c(C#N)c(=O)[nH]c2cn1",
    "endpoint_label": "half-life",
    "reported_measurement": 3.24
  },
  {
    "compound": "Cc1cc2c(N3CCC4(CCC4)CC3)c(C#N)c(=O)[nH]c2cn1",
    "endpoint_label": "half-life",
    "reported_measurement": 2.25
  },
  {
    "compound": "CCc1cc2c(N3CCC4(CC3)CC4)c(C#N)c(=O)[nH]c2cn1",
    "endpoint_label": "half-life",
    "reported_measurement": 9.6
  },
  {
    "compound": "N#Cc1c(N2CCC3(CC2)CC3)c2ccncc2[nH]c1=O",
    "endpoint_label": "half-life",
    "reported_measurement": 1.4
  },
  {
    "compound": "CCc1cc2c(N3CCC(C)(OC)CC3)c(C#N)c(=O)[nH]c2cn1",
    "endpoint_label": "half-life",
    "reported_measurement": 2.68
  }
]

====

assay: Stability in human liver microsome; conditions: human liver microsome 0.5 mg protein/mL, compound 1 μM, slope of log remaining amount versus time
Entries get a class label from measured k. See ranges: bin 1 (below 0.001 min⁻¹), bin 2 (0.001 min⁻¹ to below 0.2 min⁻¹), bin 3 (0.2 min⁻¹ or more)

[
  {
    "compound": "N#Cc1c(N2CCC3(CC2)CC3)c2cc(C(=O)O)ncc2[nH]c1=O",
    "assigned_class": "bin 3"
  },
  {
    "compound": "N#Cc1c(N2CC[C@@H](n3cccn3)C2)c2ccncc2[nH]c1=O",
    "assigned_class": "bin 2"
  },
  {
    "compound": "COc1cc2c(N3CCC4(CCC4)CC3)c(C#N)c(=O)[nH]c2cn1",
    "assigned_class": "bin 1"
  },
  {
    "compound": "COC1(C)CCN(c2c(C#N)c(=O)[nH]c3cnc(C)cc23)CC1",
    "assigned_class": "bin 2"
  },
  {
    "compound": "COCCOc1cc2c(N3CCC(C)(OC)CC3)c(C#N)c(=O)[nH]c2cn1",
    "assigned_class": "bin 2"
  },
  {
    "compound": "COC1(C)CCN(c2c(C#N)c(=O)[nH]c3cnccc23)CC1",
    "assigned_class": "bin 2"
  },
  {
    "compound": "COC1(C)CCN(c2c(C#N)c(=O)[nH]c3cnc(C(C)(C)O)cc23)CC1",
    "assigned_class": "bin 3"
  },
  {
    "compound": "N#Cc1c(N2CCC3(CC2)CC3)c2cc(C(O)CO)ncc2[nH]c1=O (stereo not shown)",
    "assigned_class": "bin 1"
  },
  {
    "compound": "N#Cc1c(Nc2ccc(Cl)cc2)c2ccncc2[nH]c1=O",
    "assigned_class": "bin 3"
  },
  {
    "compound": "CCc1cc2c(N3CCC(C)(OC)CC3)c(C#N)c(=O)[nH]c2cn1",
    "assigned_class": "bin 2"
  }
]
